conditions: in ethanol, 313.2 K

# chemicalString, solubility (mole fraction)
data = [
    ("CN1C(C(=O)Nc2ccccn2)=C(O)c2ccccc2S1(=O)=O", 0.00078),
]

----------
details: in ethanol, 308.2 K
measuredProperty: solubility (mole fraction)

# chemicalString, measurement
measured = [
    ("CN1C(C(=O)Nc2ccccn2)=C(O)c2ccccc2S1(=O)=O", 0.000553),
]

----------
conditions: in ethyl acetate, 313.2 K

# chemicalString, solubility (mole fraction)
rows = [
    ("CN1C(C(=O)Nc2ccccn2)=C(O)c2ccccc2S1(=O)=O", 0.00741),
]

----------
settings: in ethyl acetate, 308.2 K

# chemicalString, solubility (mole fraction)
measured = [
    ("CN1C(C(=O)Nc2ccccn2)=C(O)c2ccccc2S1(=O)=O", 0.00661),
]
